Test system: proTGFβ1 presented by endogenous LTBP1/3 in LN229 cells
Sequence (P01137 30-390): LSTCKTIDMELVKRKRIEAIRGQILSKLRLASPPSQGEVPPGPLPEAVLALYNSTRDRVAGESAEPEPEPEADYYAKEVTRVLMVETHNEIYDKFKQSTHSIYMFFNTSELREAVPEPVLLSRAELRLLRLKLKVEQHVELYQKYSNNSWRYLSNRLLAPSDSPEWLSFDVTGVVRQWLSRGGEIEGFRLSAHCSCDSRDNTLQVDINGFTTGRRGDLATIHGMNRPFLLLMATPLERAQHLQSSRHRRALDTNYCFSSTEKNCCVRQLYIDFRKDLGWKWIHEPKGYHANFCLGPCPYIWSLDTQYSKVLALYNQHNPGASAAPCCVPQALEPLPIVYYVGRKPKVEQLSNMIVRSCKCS
Assay: Endogenous LTBP caga assay: LN229 cells transfected with human proTGFβ1 only, CAGA12 luciferase reporter cells
Type: cell-based
Conditions: Table 20: protocol of Example 10 with Fabs (RefAb also as hIgG4), assay format not stated
hey, just use t if measured IC50 is less than 500 pM, otherwise f

Record excerpt, results attached:
Molecule | Class Assignment
SR-AB49 Fab (antibody, V domains shown) VH: QVQLVESGGGVVQPGRSLRLSCAASGFTFRSYVMHWVRQAPGKGLEWVAVISHEGSGKYYADSVKGRFTISRDNSKNTLYLQMNSLRAEDTAVYYCARPRIAARRGGFGSWGQGTLVTVSS VL: NFMLTQPHSVSESPGKTVTISCTRSSGNIDYNYVQWYQQRPGSSPTTVIYEDNVRPSGVPDRFSGSIDSSSNSASLTISGLKTEDEADYYCQGYDWDTQGVVFGGGTKLTVL | f
SR-AB57 Fab (antibody, V domains shown) VH: QVQLVESGGGVVQPGRSLRLSCAASGFTFRSYVMHWVRQAPGKGLEWVAVISHEGSGKYYADSVKGRFTISRDNSKNTLYLQMNSLRAEDTAVYYCALPRIAARRGGFGSWGQGTLVTVSS VL: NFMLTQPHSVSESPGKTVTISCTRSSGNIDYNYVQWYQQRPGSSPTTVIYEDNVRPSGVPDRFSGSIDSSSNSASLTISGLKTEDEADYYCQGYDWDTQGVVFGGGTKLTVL | f
SR-AB48 Fab (antibody, V domains shown) VH: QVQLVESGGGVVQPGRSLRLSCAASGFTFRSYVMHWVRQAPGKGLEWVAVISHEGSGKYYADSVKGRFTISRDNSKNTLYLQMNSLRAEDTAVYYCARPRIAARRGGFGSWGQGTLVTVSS VL: NFMLTQPHSVSESPGKTVTISCTRSSGNIDYNYVQWYQQRPGSSPTTVIYEDNVRPSGVPDRFSGSIDSSSNSASLTISGLKTEDEADYYCQSYDYDTQGVVFGGGTKLTVL | f
SR-Ab56 Fab (antibody, V domains shown) VH: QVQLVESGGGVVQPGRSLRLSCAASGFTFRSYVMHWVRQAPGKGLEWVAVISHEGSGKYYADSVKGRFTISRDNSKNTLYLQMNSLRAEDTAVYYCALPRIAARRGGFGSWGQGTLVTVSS VL: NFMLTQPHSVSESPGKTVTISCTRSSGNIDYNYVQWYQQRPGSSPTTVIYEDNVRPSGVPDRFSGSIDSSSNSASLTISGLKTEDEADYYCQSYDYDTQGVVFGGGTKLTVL | t
SR-AB52 Fab (antibody, V domains shown) VH: QVQLVESGGGVVQPGRSLRLSCAASGFTFRSYVMHWVRQAPGKGLEWVAVISHEGSGKYYADSVKGRFTISRDNSKNTLYLQMNSLRAEDTAVYYCARPRIAARRGGFGTWGQGTLVTVSS VL: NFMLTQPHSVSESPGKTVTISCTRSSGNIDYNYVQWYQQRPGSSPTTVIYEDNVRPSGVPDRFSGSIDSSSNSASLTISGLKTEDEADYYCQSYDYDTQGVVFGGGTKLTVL | t
SR-AB51 Fab (antibody, V domains shown) VH: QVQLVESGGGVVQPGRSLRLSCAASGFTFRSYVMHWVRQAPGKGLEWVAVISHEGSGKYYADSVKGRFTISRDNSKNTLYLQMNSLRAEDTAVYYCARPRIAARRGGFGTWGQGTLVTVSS VL: NFMLTQPHSVSESPGKTVTISCTRSSGNIDYNYVQWYQQRPGSSPTTVIYEDNVRPSGVPDRFSGSIDSSSNSASLTISGLKTEDEADYYCQSYDYDNQAVVFGGGTKLTVL | f

Bench note: check whether SR-AB61 Fab (antibody, V domains shown) VH: QVQLVESGGGVVQPGRSLRLSCAASGFTFRSYVMHWVRQAPGKGLEWVAVISHEGSGKYYADSVKGRFTISRDNSKNTLYLQMNSLRAEDTAVYYCALPRIAARRGGFGTWGQGTLVTVSS VL: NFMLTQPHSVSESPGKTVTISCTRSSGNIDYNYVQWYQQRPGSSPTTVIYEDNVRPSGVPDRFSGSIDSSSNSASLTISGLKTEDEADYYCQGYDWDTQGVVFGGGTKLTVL shows IC50 below 500 pM
t

Bench note: check whether SR-AB50 Fab (antibody, V domains shown) VH: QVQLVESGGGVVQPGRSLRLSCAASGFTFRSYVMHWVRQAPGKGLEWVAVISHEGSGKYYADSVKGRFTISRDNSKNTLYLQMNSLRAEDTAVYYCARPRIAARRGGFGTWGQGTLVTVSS VL: NFMLTQPHSVSESPGKTVTISCTRSSGNIDYNYVQWYQQRPGSSPTTVIYEDNVRPSGVPDRFSGSIDSSSNSASLTISGLKTEDEADYYCQSYDSDNQRVVFGGGTKLTVL shows IC50 below 500 pM
f

Provenance of the data: patent US11214614B2
